- test summary: LogP of the perfume ingredients
- experimental setup: ingredients of the perfume of Example 9 (Table 9)
parameter: LogP
Write no unit; give the number alone.

{"columns": ["molecule", "LogP"],
 "data": [
  ["CC(=O)OC(C)(C)C1CCC(C)CC1 (stereo not shown) [Dihydroterpenyl acetate]", 4.42]
]}

Data request: Respond only with LogP recorded for CCCC(C)C(=O)OCC (stereo not shown) [Ethyl 2-methyl-pentanoate]
Data returned: 2.76

Data request: Respond only with LogP recorded for C/C=C/C(=O)C1C(C)C=CCC1(C)C (stereo not shown)
Data returned: 4.13

Data request: Respond only with LogP recorded for CCC(=O)OC1CC2CC1C1CC=CC21 (stereo not shown) [Verdyl propionate]
Data returned: 3.34

* * *

Reported LogP values are given for each entry in this list.
- test summary: LogP of the perfume ingredients

{"columns": ["compound", "measurement"],
 "data": [
  ["C=CCCC(=O)C1=CCCC(C)(C)C1", 4.45],
  ["CC(C=O)Cc1ccc(C(C)(C)C)cc1 (stereo not shown)", 4.36],
  ["CC(=O)OC1CCC(C(C)(C)C)CC1 (stereo not shown)", 4.42]
]}

Data request: Respond only with LogP recorded for C=CCOC(=O)CCCCCC [Allyl heptanoate]
Data returned: 3.67

Data request: Respond only with LogP recorded for CC(C)=CCCC1=CCC(C)(C=O)CC1 (stereo not shown)
Data returned: 5.19

Data request: Respond only with LogP recorded for CCCCCCC(C=O)=Cc1ccccc1
Data returned: 4.82

Data request: Respond only with LogP recorded for O=C(OC1CCCCC1)c1ccccc1O [Cyclohexyl salicylate]
Data returned: 4.87

Data request: Respond only with LogP recorded for CC(=O)O[C@@H]1C[C@H]2CC[C@]1(C)C2(C)C (racemic) [Isobornyl acetate]
Data returned: 3.86

Data request: Respond only with LogP recorded for CC(=O)OC/C=C(\C)CCC=C(C)C [Geranyl acetate]
Data returned: 4.48

Data request: Respond only with LogP recorded for CCCCCCCCCCCCCC(=O)OC(C)C [Isopropyl myristate]
Data returned: 7.17

* * *

- test summary: LogP of the perfume ingredients
- experimental setup: ingredients of the perfume of Example 6 (Table 1)
Reported LogP values are given for each entry in this list.
Write no unit; give the number alone.

{"columns": ["compound", "LogP"],
 "data": [
  ["CC1(O)CCC2C(=CCCC2(C)C)C1 (stereo not shown)", 4.28],
  ["C/C=C/C(=O)C1C(C)C=CCC1(C)C (stereo not shown)", 4.13],
  ["CC1=CCC(C(C)CC2CCCC2=O)CC1 (stereo not shown)", 5.05],
  ["CC(=O)OC(C)(C)C1CCC(C)CC1 (stereo not shown) [Dihydroterpenyl acetate]", 4.42]
]}

Data request: Respond only with LogP recorded for CC(=O)OC1CC2CC1C1CC=CC21 (stereo not shown) [Verdylate]
Data returned: 3.76

Data request: Respond only with LogP recorded for CC(=O)C1(C)CC2=C(CCCC2(C)C)CC1C (stereo not shown)
Data returned: 4.71

Data request: Respond only with LogP recorded for CC12CCC(CC1)C(C)(C)O2
Data returned: 3.13

* * *

- test summary: LogP of the perfume ingredients
- experimental setup: ingredients of the perfume of Example 9 (Table 9)
parameter: LogP
Write no unit; give the number alone.

Previously resolved entries follow.
{"columns": ["compound", "measurement"],
 "data": [
  ["CC(C=O)Cc1ccc(C(C)(C)C)cc1 (centres unmarked)", 4.36],
  ["CC(C)=CC1CC(C)CCO1 (centres unmarked) [Rose oxide]", 3.58],
  ["CC(=O)OC1CC2CC1C1CC=CC21 (centres unmarked) [Verdyl acetate, Verdyl Acetate]", 2.85]
]}

Data request: Respond only with LogP recorded for CC1CCC(C(C)(C)O)CC1 (centres unmarked) [Dihydroterpineol]
Data returned: 3.42

Data request: Respond only with LogP recorded for CC(=O)C1(C)CC2=C(CCCC2(C)C)CC1C (centres unmarked)
Data returned: 4.71
